System: MT2
Test: Concentration needed to inhibit HIV-1 virus replication in MT2 cells by 50% as determined by XTT assay.
Format: functional, cell-based
Details: Homo sapiens

# molecular_string, EC50 [nM]
measured = [
    ("O=S1(=O)[C@H](Cc2ccccc2)[C@H](OCc2cncs2)[C@H](O)[C@@H](O)[C@@H](OCc2cncs2)[C@H]1Cc1ccccc1", 6.5),
    ("Nc1cccc(CO[C@@H]2[C@H](O)[C@@H](O)[C@@H](OCc3cccc(N)c3)[C@@H](Cc3ccccc3)S(=O)(=O)[C@@H]2Cc2ccccc2)c1", 9),
    ("O=S1(=O)[C@H](Cc2ccccc2)[C@H](OCc2ccccc2)[C@H](O)[C@@H](O)[C@@H](OCc2ccccc2)[C@H]1Cc1ccccc1", 40),
]

====

Listing of recorded CC50 by entry.
Experiment: Cytotoxic Concentration needed to produce 50% reduction in the number of viable MT2 cells assayed by metabolism of a tetrazolium dye.
Assay type: cell-based
Settings: human

# molecular_string, CC50 [µM]
data = [
    ("O=S1(=O)[C@H](Cc2ccccc2)[C@H](OCc2cncs2)[C@H](O)[C@@H](O)[C@@H](OCc2cncs2)[C@H]1Cc1ccccc1", 40),
    ("O=S1(=O)[C@H](Cc2ccccc2)[C@H](OCc2ccccc2)[C@H](O)[C@@H](O)[C@@H](OCc2ccccc2)[C@H]1Cc1ccccc1", 6),
    ("Nc1cccc(CO[C@@H]2[C@H](O)[C@@H](O)[C@@H](OCc3cccc(N)c3)[C@@H](Cc3ccccc3)S(=O)(=O)[C@@H]2Cc2ccccc2)c1", 30),
]

====

Biological target: Human immunodeficiency virus type 1 protease (Human immunodeficiency virus 1, UniProt Q72874)
readout_name: IC50 (nM)

# molecular_string, reported
rows = [
    ("O=S1(=O)[C@H](Cc2ccccc2)[C@H](OCc2cncs2)[C@H](O)[C@@H](O)[C@@H](OCc2cncs2)[C@H]1Cc1ccccc1", 0.3),
    ("O=S1(=O)[C@H](Cc2ccccc2)[C@H](OCc2ccccc2)[C@H](O)[C@@H](O)[C@@H](OCc2ccccc2)[C@H]1Cc1ccccc1", 0.6),
    ("Nc1cccc(CO[C@@H]2[C@H](O)[C@@H](O)[C@@H](OCc3cccc(N)c3)[C@@H](Cc3ccccc3)S(=O)(=O)[C@@H]2Cc2ccccc2)c1", 1),
]

All figures here come from ChEMBL document CHEMBL1129619.
